assay_comment: chemical genetic growth profiling, strain panel (AID 1159580);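 also: tested at 20 µM; growth read once vehicle control cultures reached saturation at 30 °C; 1 = growth at the plate median or of vehicle wells; lower values mean less growth of the strain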
test_conditions: S. cerevisiae deletion strains, growth OD, locus YBR023C, strain chs3, stronger effect = lower value
The whole screen tested about 5,500 compounds, of which about 2,000 (36%) were called active. Not shown: some 18% with an inconclusive outcome. The list shows a part of the results.
Lab note: anything with normalized growth below 1 is marked 1; values at 1 or higher are marked -1.

compound	assigned_category
CC1=C(/C=C/C(C)=C/C=C/C(C)=C/C=C/C=C(C)/C=C/C=C(C)/C=C/C2=C(C)C(=O)C(O)CC2(C)C)C(C)(C)CC(O)C1=O (stereo not drawn)	-1
CC(C)OC(=O)C(C)(C)Oc1ccc(C(=O)c2ccc(Cl)cc2)cc1	1
Oc1cc(Cl)ccc1Oc1ccc(Cl)cc1Cl	1
CC(=O)OCC[N+](C)(C)C	-1
CC1=C(/C=C/C(C)=C/C=C/C(C)=C/C=C/C=C(C)/C=C/C=C(C)/C=C/C(=O)[C@]2(C)C[C@@H](O)CC2(C)C)C(C)(C)C[C@H](O)C1	-1
CC(C[N+](C)(C)C)OC(N)=O (stereo not drawn)	-1
